Reference source: patent US20240254204A1

Reported sVNT SARS-CoV-1 (% I) values for the following binders.
- experimental_target: SARS-CoV-1 RBD (SARS-CoV)
- assay_method_text: sVNT, cPass kit format with SARS-CoV-1 RBD-HRP; HEK293 supernatant
measurement_kind: sVNT SARS-CoV-1 (% I)

binder	value
Antibody 15 (SS6V15-F6) (antibody, V domains shown) VH: EVQLVESGGGVVQPGRSLRLSCAASGFTFSSYAIHWVRQAPGKALEWVALISYDGRTKYYADSVKGRFTISRDNSKNTLYLQMNSLRAEDTAVYYCARLDIIITPPANDYWGQGTLVTVSS VL: EIVLTQSPGTLSLSPGDRATVSCRASQIVSSNYLAWYQQKPGQVPRLLIYDASSRATGIPDRFSGSGSGTDFTLTISRLEPEDFAVYYCHQYGDSRRTFGQGTKVDIK	17.5%
Antibody 14 (SS6V14-F2) (antibody, V domains shown) VH: QVQLQESGPGLVKPSETLSLTCTVSGGPISSYYWTWIRQPPGKGLEWIGYIYYSGSTNYSPSLKSRVTMSLETSKNQFSLKLTSVTAADTAVYYCARDPLAEGAASSGFDNWGQGTLVTVSS VL: DIQMTQSPSSLSASVGDRVTITCRASQSISSYLNWYQQKPGKAPKLLIYAASALQSGVPSRFSGSGSGTHFSLTINGLQPEDFATYSCQQSYTTPRTFGPGTKVEIK	18.1%
